target: HLA-A*11:01; assay: IEDB peptide-MHC binding, purified MHC/competitive/fluorescence; bounds were set here for any values at or beyond the usual limits of such assays; details: source organism: Sudan ebolavirus

{"columns": ["sequence.text", "IC50"],
 "data": [
  ["STDIPSATK", "1470 nM"]
]}

###

target: HLA-B*18:01; experiment: IEDB peptide-MHC binding, purified MHC/direct/fluorescence; filed as Kd, often an IC50 or EC50 that approximates it; bounds were set here for any values at or beyond the usual limits of such assays; conditions: source organism: Cowpox virus
pKd: −log10 of the molar value.

{"columns": ["sequence.text", "pKd"],
 "data": [
  ["YHRPLTGYM", "≤ 4.70"]
]}

###

target: HLA-A*69:01; assay: IEDB peptide-MHC binding, purified MHC/direct/fluorescence; filed as Kd, often an IC50 or EC50 that approximates it; bounds were set here for any values at or beyond the usual limits of such assays; settings: source organism: Pseudomonas viridiflava

{"columns": ["sequence.text", "Kd"],
 "data": [
  ["DYDQRDYGF", "≥ 20 µM"]
]}

###

biological target: HLA-B*08:01; assay: IEDB peptide-MHC binding, purified MHC/competitive/fluorescence; bounds were set here for any values at or beyond the usual limits of such assays; details: source organism: Vaccinia virus WR
pIC50: −log10 of the molar value.
measured.endpoint: pIC50

{"columns": ["sequence.text", "measured.endpoint", "recorded.result"],
 "data": [
  ["FGLYKSINV", "pIC50", 4.43]
]}

###

target: HLA-A*24:02; experiment: IEDB peptide-MHC binding, purified MHC/competitive/fluorescence; bounds were set here for any values at or beyond the usual limits of such assays; details: source organism: Zaire ebolavirus
For each record, check the reported IC50: if it is below 2 µM write yes, else write no.

{"columns": ["sequence.text", "target.desc", "label.class"],
 "data": [
  ["SSGYYSTTI", "HLA-A*24:02", "no"],
  ["RWGGTCHIL", "HLA-A*24:02", "yes"],
  ["CLHHAYQGD", "HLA-A*24:02", "no"],
  ["DPSSGYYST", "HLA-A*24:02", "no"],
  ["SFLLMLCLH", "HLA-A*24:02", "no"],
  ["VSSGKNIKR", "HLA-A*24:02", "no"],
  ["FLLQLNETI", "HLA-A*24:02", "yes"],
  ["TYVQLESRF", "HLA-A*24:02", "no"],
  ["AQPKCNPNL", "HLA-A*24:02", "no"]
]}

###

target: HLA-B*15:17; experiment: IEDB peptide-MHC binding, purified MHC/competitive/fluorescence; filed as Kd, often an IC50 or EC50 that approximates it; bounds were set here for any values at or beyond the usual limits of such assays; conditions: source organism: Human immunodeficiency virus 1
pKd: −log10 of the molar value.

{"columns": ["sequence.text", "target.desc", "pKd"],
 "data": [
  ["RSLYNTVATLY", "HLA-B*15:17", 9.15]
]}

###

molecular target: HLA-A*68:01; experiment: IEDB peptide-MHC binding, purified MHC/competitive/radioactivity; filed as Kd, often an IC50 or EC50 that approximates it; bounds were set here for any values at or beyond the usual limits of such assays; settings: source organism: Lymphocytic choriomeningitis virus (strain Armstrong)
pKd: −log10 of the molar value.
measured.endpoint: pKd

{"columns": ["sequence.text", "target.desc", "measured.endpoint", "prefix.operator", "recorded.result"],
 "data": [
  ["RCHDHYLCRH", "HLA-A*68:01", "pKd", "≤", 4.15],
  ["NACSANNSHH", "HLA-A*68:01", "pKd", "=", 5.33]
]}

###

biological target: HLA-B*15:09; assay: IEDB peptide-MHC binding, purified MHC/direct/fluorescence; filed as Kd, often an IC50 or EC50 that approximates it; bounds were set here for any values at or beyond the usual limits of such assays; conditions: source organism: Yersinia pestis CA88-4125

{"columns": ["sequence.text", "Kd"],
 "data": [
  ["RPQLWRYRW", "≥ 20 µM"]
]}

###

target: HLA-B*07:02; assay: IEDB peptide-MHC binding, purified MHC/direct/fluorescence; filed as Kd, often an IC50 or EC50 that approximates it; bounds were set here for any values at or beyond the usual limits of such assays; details: source organism: Pseudomonas viridiflava

{"columns": ["sequence.text", "Kd"],
 "data": [
  ["DYDQRDYGF", "≥ 20 µM"]
]}

###

biological target: HLA-B*27:03; assay: IEDB peptide-MHC binding, purified MHC/competitive/fluorescence; filed as Kd, often an IC50 or EC50 that approximates it; bounds were set here for any values at or beyond the usual limits of such assays; settings: source organism: Homo sapiens
pKd: −log10 of the molar value.

{"columns": ["sequence.text", "pKd"],
 "data": [
  ["GVRQFSGWM", "≤ 4.70"],
  ["SVDSDHLGY", "≤ 4.70"]
]}

###

molecular target: HLA-A*29:02; assay: IEDB peptide-MHC binding, purified MHC/competitive/radioactivity; filed as Kd, often an IC50 or EC50 that approximates it; bounds were set here for any values at or beyond the usual limits of such assays; details: source organism: Mammarenavirus juninense
measured.endpoint: Kd (nM)

{"columns": ["sequence.text", "target.desc", "recorded.result"],
 "data": [
  ["LCLSGDGWPY", "HLA-A*29:02", 148]
]}

###

biological target: HLA-B*39:01; test: IEDB peptide-MHC binding, purified MHC/competitive/fluorescence; filed as Kd, often an IC50 or EC50 that approximates it; bounds were set here for any values at or beyond the usual limits of such assays; conditions: source organism: Influenza A virus (A/duck/Hong Kong/3096/99(H6N2))

{"columns": ["sequence.text", "Kd"],
 "data": [
  ["TMLYNKMEF", "≥ 20 µM"]
]}

###

molecular target: HLA-A*02:06; experiment: IEDB peptide-MHC binding, purified MHC/competitive/fluorescence; filed as Kd, often an IC50 or EC50 that approximates it; bounds were set here for any values at or beyond the usual limits of such assays; conditions: source organism: Influenza A virus (A/duck/Hong Kong/3096/99(H6N2))
pKd: −log10 of the molar value.

{"columns": ["sequence.text", "target.desc", "pKd"],
 "data": [
  ["TMLYNKMEF", "HLA-A*02:06", 6.51]
]}

###

target: HLA-B*57:01; assay: IEDB peptide-MHC binding, purified MHC/direct/fluorescence; filed as Kd, often an IC50 or EC50 that approximates it; bounds were set here for any values at or beyond the usual limits of such assays; settings: source organism: Vibrio vulnificus CMCP6

{"columns": ["sequence.text", "Kd"],
 "data": [
  ["KQIVIINPM", "≥ 20 µM"]
]}

###

target: HLA-B*08:01; test: IEDB peptide-MHC binding, purified MHC/competitive/radioactivity; filed as Kd, often an IC50 or EC50 that approximates it; bounds were set here for any values at or beyond the usual limits of such assays; settings: source organism: Dengue virus 3 Martinique/1243/1999
pKd: −log10 of the molar value.
# Lookup of reported pKd keyed by entry

{"columns": ["sequence.text", "target.desc", "pKd"],
 "data": [
  ["AIKRRLRTL", "HLA-B*08:01", 8.01],
  ["SPKRLATAI", "HLA-B*08:01", 7.85],
  ["MLKRVRNRV", "HLA-B*08:01", 7.73],
  ["LLLMRTSWAL", "HLA-B*08:01", 8.83],
  ["VMKIGIGVLL", "HLA-B*08:01", 6.29],
  ["TMGVLCLAIL", "HLA-B*08:01", 5.19],
  ["MRKTDWLPM", "HLA-B*08:01", 7.46],
  ["SLLRNDVPM", "HLA-B*08:01", 7.32],
  ["MFKKRNLTI", "HLA-B*08:01", 7.80]
]}

###

target: HLA-B*15:17; experiment: IEDB peptide-MHC binding, purified MHC/competitive/fluorescence; filed as Kd, often an IC50 or EC50 that approximates it; bounds were set here for any values at or beyond the usual limits of such assays; conditions: source organism: Influenza A virus (A/duck/Hong Kong/3096/99(H6N2))

{"columns": ["sequence.text", "Kd"],
 "data": [
  ["TMLYNKMEF", "311 nM"]
]}

###

biological target: HLA-A*26:01; assay: IEDB peptide-MHC binding, purified MHC/competitive/fluorescence; filed as Kd, often an IC50 or EC50 that approximates it; bounds were set here for any values at or beyond the usual limits of such assays; conditions: source organism: Giardia lamblia ATCC 50803
pKd: −log10 of the molar value.

{"columns": ["sequence.text", "pKd"],
 "data": [
  ["TELPLAYER", "≤ 4.70"]
]}
